Where do these numbers come from? They come from patent US20090022728A1.

Molecular target: T1, Aβ1-40 peptide
T1 construct: synthetic peptide, not biotinylated; also called 1-40 (WT); beta amyloid 1-40
T1 sequence (peptide, as listed by the source): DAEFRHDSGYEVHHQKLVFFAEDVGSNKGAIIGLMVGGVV
Experiment: ELISA, nonbiotinylated peptide on plate; note: test concentration or dose not given here
Experimental Endpoint: A450 ELISA (A450)
One number for each entry, in A450.

(Q) So what does the record say about A450 ELISA for 6G heavy chain variant 4B (R104F) (antibody, V domains shown) VH: QVQLVQSGAEVKKPGASVKVSCKASGYTFTTYAIHWVRQAPGQGLEWMGFTSPYSGVSNYNQKFKGRVTMTRDTSTSTVYMELSSLRSEDTAVYYCARFDNYDFGYVRDYWGQGTLVTVS VL: DIVMTQSPDSLAVSLGERATINCRASESVDNDRISFLNWYQQKPGQPPKLLIYAATKQGTGVPDRFSGSGSGTDFTLTISSLQAEDVAVYYCQQSKEFPWSFGGGTKVEIKR ?
(A) 2.48
